Each recorded value in this set is attributed to patent US20200317802A1.

Could you please report measured binding ELISA (OD 450 nm) for the items listed next?
- targetOrSystem: T1, recombinant human ADAMTS5 (R&D Systems cat #2198-AD) (human, UniProt Q9UNA0 262-622, limits assumed)
- T1 construct: bought protein
- T1 sequence: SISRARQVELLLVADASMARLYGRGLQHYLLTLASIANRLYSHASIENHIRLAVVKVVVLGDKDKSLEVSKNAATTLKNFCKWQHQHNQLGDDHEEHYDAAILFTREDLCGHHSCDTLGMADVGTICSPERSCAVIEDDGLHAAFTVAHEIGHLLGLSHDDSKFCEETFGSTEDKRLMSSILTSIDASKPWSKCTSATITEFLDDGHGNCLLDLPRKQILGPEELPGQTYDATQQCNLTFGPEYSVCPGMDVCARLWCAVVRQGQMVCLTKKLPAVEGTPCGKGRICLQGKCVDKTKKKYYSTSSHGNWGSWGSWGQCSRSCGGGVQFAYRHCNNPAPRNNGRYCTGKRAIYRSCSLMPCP
- testDetails: binding ELISA, periplasmic extract on coated human ADAMTS5
Don't forget the unit after the value.

Exam item: Query: binding ELISA (OD 450 nm); subject: Nanobody 7B11 (VHH, tagged as tested (anti-Flag detection, IMAC); also called 07B11) VHH: EVQLVESGGGLVQPGGSLRLSCAASGSIFSINVMGWYRQAPGKQRELVAAIISGGRTNYADSVKGRFTISRDNSKNTVYLQMNSLRPEDTAVYYCNAEVDAGIYAYGYWGQGTLVTVSS
Marked response: 0.368 OD 450 nm

Exam item: Recorded binding ELISA (OD 450 nm) for Nanobody 3F04 (VHH, tagged as tested (anti-Flag detection, IMAC); also called 03F04) VHH: EVQLVESGGGSVQAGGSLRLSCVASGRYPMAWFRQAPGKEREFVAGVSWGGDRTYYADSVQGRFTVSRDYAKNTLYLQMNSLKPEDAAVYYCAGDPWGRLFRVKDNYSDWGQGTLVTVSS , please?
Marked response: 2.56 OD 450 nm

Exam item: Would you mind telling me what binding ELISA (OD 450 nm) value was observed for Nanobody 2D07 (VHH, tagged as tested (anti-Flag detection, IMAC); also called 02D07; 2D7) VHH: EVQLVESGGGLVQAGGSLRLSCSFSGPGRTFARYAMGWFRQAPGKNRDFITGISGSGDSTYYVYPMKDRFTISRDNAKNMVYLQMNALKPEDTAVYYCAADREINRIANDKELDFWGQGTLVTVSS ?
Marked response: 1.55 OD 450 nm

Exam item: Item under review: Nanobody 3D02 (VHH, tagged as tested (anti-Flag detection, IMAC); also called 03D02) VHH: EVQLVESGGGLVQAGASLRLSCATSGFTFSPYYMGWFRQAPGKERDFVAAISWSRGILYYTDSTEGRFTISRDNAKNTMYLQMDNLNPEDTAVYYCAASRSPGDPSRTYLYDYWGQGTLVTVSS . Reported binding ELISA (OD 450 nm)?
Marked response: 2.58 OD 450 nm

Exam item: Data request, read-out binding ELISA (OD 450 nm), for Nanobody 3B02 (VHH, tagged as tested (anti-Flag detection, IMAC); also called 03B02; 3B2) VHH: EVQLVESGGGFVQAGGSLRLSCVASRRTISSGTMGWFRQAPGKEREFVAAIRWSSGMPYYLDSVMDRFTISRDNAKNTVSLQMNSLQPEDTAVYYCAADRSAFRDPSFDVNYEYWGRGTLVTVSS
Marked response: 2.57 OD 450 nm

Exam item: Report binding ELISA (OD 450 nm) for Nanobody 2D12 (VHH, tagged as tested (anti-Flag detection, IMAC); also called 02D12) VHH: EVQLVESGGGLVQAGDSLRLSCAASGRTFSTYFVGWFRQAPGKERDFVAAISRNGARTYYYDSVAGLFTISRDNAKNTVYLQMSSLKPEDTAVYYCAAARISPSDPSNEDGYDYWGQGTLVTVSS please.
Marked response: 1.35 OD 450 nm

Exam item: So what's the measured binding ELISA (OD 450 nm) for this one? Nanobody 3B03 (VHH, tagged as tested (anti-Flag detection, IMAC); also called 03B03) VHH: EVQLVESGGDLVQPGGSLRLSCAASGSDVVVNDMGWYRQAPGKQRELVADITTGGRTNYADSVKGRFTISRDNVKNTVYLQMNSLKPEDTAVYYCNAQVGDSDDDVWYAYWGQGTLVTVSS
Marked response: 2.29 OD 450 nm

Exam item: I have this binder here, Nanobody 2F03 (VHH, tagged as tested (anti-Flag detection, IMAC); also called 02F03; 2F3) VHH: EVQLVESGGGLVQAGGSLRLSCAASGRTVSSYAMGWFRLAPGKEREFVAGISRSAERTYYVDSLKGRFTISRDSAKNTVYLHMNRLKPEDTAVYYCAADLDPNRIFSREEYAYWGQGTLVTVSS , and I need its recorded binding ELISA (OD 450 nm).
Marked response: 1.84 OD 450 nm

Exam item: Could you share which binding ELISA (OD 450 nm) value was measured for Nanobody 2G01 (VHH, tagged as tested (anti-Flag detection, IMAC); also called 02G01) VHH: EVQLVESGGGLVQAGGSLRLSCAASGRTTFSSYAMGWFRQAPGKERAFVATIWSGGLTVYADSAKGRFTISRDNAKNTVYLQMNSLRPEDTAVYYCAAEAVGTYYTPDGWTYWGQGTLVTVSS ?
Marked response: 1.71 OD 450 nm

Exam item: I am curious: what binding ELISA (OD 450 nm) value has been reported for Nanobody 2A02 (VHH, tagged as tested (anti-Flag detection, IMAC); also called 02A02) VHH: EVQLVESGGGLVQPGGSLRLSCAASRRTFSSYVMAWFRQAPGKEREFVAAISRSGDSTYYYDSLEGRFTISRDNAKNTVHLQMNSLKPEDTAVYICAASRAPSFRTIDAINYYDYWGQGTLVTVSS ?
Marked response: 1.65 OD 450 nm

Exam item: Any idea what its binding ELISA (OD 450 nm) is? The binder is Nanobody 2A12 (VHH, tagged as tested (anti-Flag detection, IMAC); also called 02A12) VHH: EVQLVESGGGLVQAGGSLRLSCAASGRTFSSYAMGWFRQAPGKERDFVAGISRSAGRTYYVDSVKGRFTISRDSAKNTVYLQMNRLKPEDTAVYYCAADLDPNRIFSRDEAAYWGQGTLVTVSS
Marked response: 1.75 OD 450 nm

Exam item: Which binding ELISA (OD 450 nm) is listed for Nanobody 2C10 (VHH, tagged as tested (anti-Flag detection, IMAC); also called 02C10) VHH: EVQLVESGGGLVQAGGSLRLSCATSGFTFSPYYMGWFRQAPGKERDFVAAITRSRGTTYYLDSTEGRFTISRDNAKNTMYLQMNSLNPEDTAVYYCAAGRSPGDPSRTYLYEYWGQGTLVTVSS ?
Marked response: 1.63 OD 450 nm

Exam item: Returns the measured binding ELISA (OD 450 nm) for the input binder. Input: Nanobody 3D01 (VHH, tagged as tested (anti-Flag detection, IMAC); also called 03D01) VHH: EVQLVESGGGLVQAGGSLRLSCAPSGFTFSPYYMGWFRQAPGKERDFVAAISRSRGTTYYLDSTEGRFTISRDNANDTVYLQMNSLNPEDTAVYYCAAGRSPGDPSRTYLYDYWGQGTLVTVSS
Marked response: 2.57 OD 450 nm
